From: patent US20250152746A1

# System: PCSK9 gene
# assay_details: PCSK9 gRNA/SpCas9 editing in primary cynomolgus hepatocytes (Tables 2, 22)
# Format: cell-based, cynomolgus monkey
# condition_context: SpCas9 mRNA MS002, 2500 ng/test article/mL, rep2
In the oligonucleotide strings, read from the 5' end, every base follows the letter of its sugar. An asterisk marks phosphorothioate; unmarked linkages are phosphodiester. Other units and linkages are bracketed, terminal groups are in braces. A string of capitals states the bases alone. m = 2'-O-methyl; r = 2'-OH (RNA)
# maps each entry to its Cynomolgus Primary Hepatocytes-% Editing
Please respond with the number in % and leave the unit unwritten.

Please review the following examples before continuing.
GA397 (nucleic acid) guide: mU*mC*mA*rGrCrUrCrCrArGrGrCrGrGrUrCrCrUrGrGmGrUrUrUrUrArGmAmGmCmUmArGmAmAmAmUmAmGmCmAmArGrUrUmArAmArAmUrAmAmGmGmCmUmArGrUmCmCrGrUrU*rAmUmCrArAmCmUmUrGmAmAmAmAmAmGmUmGrGmCmAmCmCmGmAmGmUmCmGmGmUmGmCmU*mU*mU*mUmUmUmU :: 58.59
GA406 (nucleic acid, listed as RNA; modified_base 1: mod_base = OTHER; note = 2'-O-Methyl-uridine phosphorothioate; modified_base 2: mod_base = OTHER; note = 2'-O-Methyl-cytidine phosphorothioate; modified_base 3: mod_base = OTHER; note = 2'-O-Methyl-adenosine phosphorothioate;) guide: TCAGCTCCAGGCGGTCCTGGGTTTTAGAGCTAGAAATAGCAAGTTAAAATAAGGCTAGTCCGTTATCAACTTGAAAAAGTGGCACCGAGTCGGTGCTTTTTTT :: 51.45

Suppose we examine the molecule GA398 (nucleic acid) guide: mU*mC*mA*rGrCrUrCrCrArGrGrCrGrGrUrCrCrUrGrGmGrUrUrUrUrArGmAmGmCmUmAmGmAmAmAmUmAmGmCmAmArGrUrUmArAmArAmUrAmAmGmGmCmUmArGrUrCmCrGrUrUrAmUmCrArAmCmUmUmGmAmAmAmAmAmGmUmGmGmCmAmCmCmGmAmGmUmCmGmGmUmGmCmU*mU*mU*mUmUmUmU ; what Cynomolgus Primary Hepatocytes-% Editing value has been reported?
63.97
